assay: in vivo; details: female, SCID, mouse, total radioactivity, Tumor to muscle ratio
measuredParameter: tissue to tissue ratio at 0.5 h

compound: CSCC[C@H](NC(=O)[C@H](CC(C)C)NC(=O)CNC(=O)[C@H](Cc1ccccc1)NC(=O)[C@H](Cc1ccccc1)NC(=O)[C@H](CCC(N)=O)NC(=O)[C@H](CCC(N)=O)NC(=O)[C@@H]1CCCN1C(=O)[C@H](CCCCN)NC(=O)[C@@H]1CCCN1C(=O)[C@H](CCCNC(=N)N)NC(=O)CN1CCN(CC(=O)O)CCN(CC(=O)O)CCN(CC(=O)O)CC1)C(N)=O [^68Ga-DOTA-substance P, DOTA-substance P, metal not drawn]
numericResult: 3.1

====

experiment: Ex vivo biodistribution; details: female, SCID, mouse, tumor and muscle, total radioactivity, Tumor to muscle ratio, 90 min p.i., from ex vivo biodistribution
tissue to tissue ratio at 1.5 h listing for selected compounds.
measuredParameter: tissue to tissue ratio at 1.5 h

compound: N=C(N)NCCC[C@@H]1NC(=O)[C@H](CCCCNC(=O)CCC(C(=O)O)N2CCN(CC(=O)O)CCN(CC(=O)O)CC2)NC(=O)[C@@H](Cc2ccc(O)cc2)NC(=O)[C@H](CC(=O)O)NC(=O)CNC1=O (stereo partly drawn) [^68Ga-NODAGA-c(RGDyK), NODAGA-c(RGDyK), metal not drawn]
numericResult: 6.51
//
compound: N=C(N)NCCC[C@@H]1NC(=O)[C@H](CCCCNC(=O)CC[C@H](NC(=O)CCC(C(=O)O)N2CCN(CC(=O)O)CCN(CC(=O)O)CC2)C(=O)NCCCC[C@@H]2NC(=O)[C@@H](Cc3ccc(O)cc3)NC(=O)[C@H](CC(=O)O)NC(=O)CNC(=O)[C@H](CCCNC(=N)N)NC2=O)NC(=O)[C@@H](Cc2ccc(O)cc2)NC(=O)[C@H](CC(=O)O)NC(=O)CNC1=O (stereo partly drawn) [^68Ga-NODAGA-c(RGDyK)2, NODAGA-c(RGDyK)2, metal not drawn]
numericResult: 10.5
//
compound: N=C(N)NCCC[C@@H]1NC(=O)[C@H](CCCCNC(=O)CN2CCN(CC(=O)O)CCN(CC(=O)O)CCN(CC(=O)O)CC2)NC(=O)[C@@H](Cc2ccccc2)NC(=O)[C@H](CC(=O)O)NC(=O)CNC1=O [^68Ga-DOTA-c(RGDfK), DOTA-c(RGDfK), metal not drawn]
numericResult: 13.5

====

experiment: µPET/CT imaging; conditions: female, SCID, mouse, tumor and brain (PET volumes of interest), total radioactivity
# Lookup of reported tissue to tissue ratio at 1.5 h keyed by entry

molecule: N=C(N)NCCC[C@@H]1NC(=O)[C@H](CCCCNC(=O)CC[C@H](NC(=O)CCC(C(=O)O)N2CCN(CC(=O)O)CCN(CC(=O)O)CC2)C(=O)NCCCC[C@@H]2NC(=O)[C@@H](Cc3ccc(O)cc3)NC(=O)[C@H](CC(=O)O)NC(=O)CNC(=O)[C@H](CCCNC(=N)N)NC2=O)NC(=O)[C@@H](Cc2ccc(O)cc2)NC(=O)[C@H](CC(=O)O)NC(=O)CNC1=O (stereo partly drawn) [^68Ga-NODAGA-c(RGDyK)2, NODAGA-c(RGDyK)2, metal not drawn]
tissue to tissue ratio at 1.5 h: 4.14
--
molecule: N=C(N)NCCC[C@@H]1NC(=O)[C@H](CCCCNC(=O)CCC(C(=O)O)N2CCN(CC(=O)O)CCN(CC(=O)O)CC2)NC(=O)[C@@H](Cc2ccc(O)cc2)NC(=O)[C@H](CC(=O)O)NC(=O)CNC1=O (stereo partly drawn) [^68Ga-NODAGA-c(RGDyK), NODAGA-c(RGDyK), metal not drawn]
tissue to tissue ratio at 1.5 h: 4
--
molecule: N=C(N)NCCC[C@@H]1NC(=O)[C@H](CCCCNC(=O)CN2CCN(CC(=O)O)CCN(CC(=O)O)CCN(CC(=O)O)CC2)NC(=O)[C@@H](Cc2ccccc2)NC(=O)[C@H](CC(=O)O)NC(=O)CNC1=O [^68Ga-DOTA-c(RGDfK), DOTA-c(RGDfK), metal not drawn]
tissue to tissue ratio at 1.5 h: 4.7

====

assay: Ex vivo biodistribution; settings: female, SCID, mouse, tumor and kidney, total radioactivity, Tumor to kidney ratio, 90 min p.i., from ex vivo biodistribution

molecule: N=C(N)NCCC[C@@H]1NC(=O)[C@H](CCCCNC(=O)CN2CCN(CC(=O)O)CCN(CC(=O)O)CCN(CC(=O)O)CC2)NC(=O)[C@@H](Cc2ccccc2)NC(=O)[C@H](CC(=O)O)NC(=O)CNC1=O [^68Ga-DOTA-c(RGDfK), DOTA-c(RGDfK), metal not drawn]
tissue to tissue ratio at 1.5 h: 1.43
--
molecule: N=C(N)NCCC[C@@H]1NC(=O)[C@H](CCCCNC(=O)CCC(C(=O)O)N2CCN(CC(=O)O)CCN(CC(=O)O)CC2)NC(=O)[C@@H](Cc2ccc(O)cc2)NC(=O)[C@H](CC(=O)O)NC(=O)CNC1=O (stereo partly drawn) [^68Ga-NODAGA-c(RGDyK), NODAGA-c(RGDyK), metal not drawn]
tissue to tissue ratio at 1.5 h: 0.9
--
molecule: N=C(N)NCCC[C@@H]1NC(=O)[C@H](CCCCNC(=O)CC[C@H](NC(=O)CCC(C(=O)O)N2CCN(CC(=O)O)CCN(CC(=O)O)CC2)C(=O)NCCCC[C@@H]2NC(=O)[C@@H](Cc3ccc(O)cc3)NC(=O)[C@H](CC(=O)O)NC(=O)CNC(=O)[C@H](CCCNC(=N)N)NC2=O)NC(=O)[C@@H](Cc2ccc(O)cc2)NC(=O)[C@H](CC(=O)O)NC(=O)CNC1=O (stereo partly drawn) [^68Ga-NODAGA-c(RGDyK)2, NODAGA-c(RGDyK)2, metal not drawn]
tissue to tissue ratio at 1.5 h: 0.91
